# Tested on: MDA-MB-231
# methodDescription: Cell viability assay (SRB or CTG) in MDA-MB-231
# Type: cell-based
# experimentalContext: Homo sapiens, MDA-MB-231, 72 h, 3 days after drug treatment
Provide the recorded IC50 for the entries that follow.
Numbers only, in nM.

Please supply IC50 for each of the following items, keeping them in order.
1. C[C@@H]1CN(c2ncc(F)c(Nc3cc(-c4ccc(OC(F)F)cc4)c(N)nn3)n2)C[C@H](C)O1
2. C[C@H]1CN(c2ncc(F)c(Nc3cc(-c4ccc(OC(F)F)cc4)cnn3)n2)C[C@H](C)O1

Reply:
805
328

---

# System: MDA-MB-231
# methodDescription: Cell viability assay (SRB or CTG) in MDA-MB-231
# Type: cell-based
# experimentalContext: Homo sapiens, MDA-MB-231, 72 h, 3 days after drug treatment
pIC50: −log10 of the molar value.
readoutLabel: pIC50

Below: 2 molecules and their reported pIC50.
INSERT INTO assay_data (structurenotation, obsvalue) VALUES
  ('C[C@@H]1CN(c2ncc(F)c(Nc3cc(-c4ccc(OC(F)F)cc4)cnn3)n2)C[C@H](C)O1', 6.40),
  ('CNc1nnc(Nc2nc(N3C[C@@H](C)O[C@@H](C)C3)ncc2F)cc1-c1ccc(OC(F)F)cc1', '< 5.00');

Kindly consider the entry below.
Task item: What value of pIC50 on MDA-MB-231 does COc1nnc(Nc2nc(N3C[C@@H](C)O[C@@H](C)C3)ncc2F)cc1-c1ccc(OC(F)F)cc1 have?
Reply: < 5.00

---

# Tested on: MDA-MB-231
# methodDescription: Cell viability assay (SRB or CTG) in MDA-MB-231
# Type: cell-based
# experimentalContext: Homo sapiens, MDA-MB-231, 72 h, 3 days after drug treatment
Output class 1 for records whose IC50 is lower than 800 nM, class 0 for records at or above 800 nM.

Task item: I'd appreciate it if you could check whether C[C@@H]1CN(c2ncc(F)c(Nc3cc(-c4ccc(OC(F)F)cc4)c[nH]c3=O)n2)C[C@H](C)O1 [Compound 346] has IC50 smaller than 800 nM.
Reply: class 0

Task item: I'd appreciate it if you could check whether CC(=O)c1nnc(Nc2nc(N3C[C@@H](C)O[C@@H](C)C3)ncc2F)cc1-c1ccc(OC(F)F)cc1 [Compound 580] has IC50 smaller than 800 nM.
Reply: class 0

Task item: I'd appreciate it if you could check whether C[C@@H]1CN(c2nccc(Nc3cc(-c4ccc(OC(F)F)cc4)c[nH]c3=O)n2)C[C@H](C)O1 [Compound 264] has IC50 smaller than 800 nM.
Reply: class 1

Task item: I'd appreciate it if you could check whether Fc1cnc(N2CCOC3CC32)nc1Nc1cc(-c2ccc(OC(F)F)cc2)cnn1 (stereo not drawn) [Compound 103] has IC50 smaller than 800 nM.
Reply: class 0

Task item: I'd appreciate it if you could check whether COc1ncc(-c2ccc(OC(F)F)cc2)cc1Nc1nc(N2C[C@@H](C)O[C@@H](C)C2)ncc1F [Compound 387] has IC50 smaller than 800 nM.
Reply: class 0

Task item: I'd appreciate it if you could check whether C[C@@H]1CN(c2ncc(F)c(Nc3cc(-c4ccc(OC(F)F)cc4)c(C(=O)O)nn3)n2)C[C@H](C)O1 [Compound 562] has IC50 smaller than 800 nM.
Reply: class 0

Where do the numbers come from? From patent US11986475B1.
